Where do the numbers come from? From paper PMC10247784.

The following compounds are shown together with reported RLU values.
# SYSTEM_NAME: human TAS2R1 (Homo sapiens, UniProt Q9NYW7)
# Construct: expressed in transfected cells; host or cells: HEK293T-Gα16gust44
# ASSAY_OVERVIEW: Calcium imaging assay (FLIPR), HEK293T-Gα16gust44 cells transfected with human TAS2R1
# Format: cell-based
# CONDITION_DETAILS: Time 38.796 s

SUBSTANCE_SMILES | UNIT_NAME | RLU
C[C@H](CCC(=O)O)[C@H]1CC[C@H]2[C@@H]3[C@@H](O)C[C@@H]4C[C@H](O)CC[C@]4(C)[C@H]3CC[C@]12C | RLU | 661.973
C[C@H](CCC(=O)O)[C@H]1CC[C@H]2[C@@H]3[C@H](O)C[C@@H]4C[C@H](O)CC[C@]4(C)[C@H]3C[C@H](O)[C@]12C | RLU | 652.414
C[C@H](CCC(=O)O)[C@H]1CC[C@H]2[C@@H]3CC[C@@H]4C[C@H](O)CC[C@]4(C)[C@H]3CC[C@]12C | RLU | 583.488
C[C@H](CCC(=O)O)[C@H]1CC[C@H]2[C@@H]3[C@H](O)C[C@@H]4C[C@H](O)CC[C@]4(C)[C@H]3CC[C@]12C | RLU | 835.786

* * *

# SYSTEM_NAME: human TAS2R1 (Homo sapiens)
# Construct: expressed in transfected cells; host or cells: HEK293T-Gα16gust44
# Sequence (Q9NYW7 1-299): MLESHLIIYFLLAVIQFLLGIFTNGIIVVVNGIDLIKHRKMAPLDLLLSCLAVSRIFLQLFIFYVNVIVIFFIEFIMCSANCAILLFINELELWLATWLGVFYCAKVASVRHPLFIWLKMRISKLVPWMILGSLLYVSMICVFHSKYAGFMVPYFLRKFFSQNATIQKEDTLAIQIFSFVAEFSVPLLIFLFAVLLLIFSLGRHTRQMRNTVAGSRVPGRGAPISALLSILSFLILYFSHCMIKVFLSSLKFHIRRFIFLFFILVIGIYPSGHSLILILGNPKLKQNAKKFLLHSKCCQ
# ASSAY_OVERVIEW: Calcium imaging assay (FLIPR), HEK293T-Gα16gust44 cells transfected with human TAS2R1
# Type: cell-based
# CONDITION_DETAILS: Time 82.796 s

SUBSTANCE_SMILES | RLU
C[C@H](CCC(=O)O)[C@H]1CC[C@H]2[C@@H]3[C@H](O)C[C@@H]4C[C@H](O)CC[C@]4(C)[C@H]3CC[C@]12C | 792.555 RLU
C[C@H](CCC(=O)O)[C@H]1CC[C@H]2[C@@H]3CC[C@@H]4C[C@H](O)CC[C@]4(C)[C@H]3CC[C@]12C | 897.83 RLU
C[C@H](CCC(=O)O)[C@H]1CC[C@H]2[C@@H]3[C@H](O)C[C@@H]4C[C@H](O)CC[C@]4(C)[C@H]3C[C@H](O)[C@]12C | 687.252 RLU
C[C@H](CCC(=O)O)[C@H]1CC[C@H]2[C@@H]3[C@@H](O)C[C@@H]4C[C@H](O)CC[C@]4(C)[C@H]3CC[C@]12C | 573.074 RLU

* * *

# SYSTEM_NAME: human TAS2R14 (Homo sapiens, UniProt Q9NYV8)
# Construct: expressed in transfected cells; host or cells: HEK293T-Gα16gust44
# Sequence (Q9NYV8 whole entry): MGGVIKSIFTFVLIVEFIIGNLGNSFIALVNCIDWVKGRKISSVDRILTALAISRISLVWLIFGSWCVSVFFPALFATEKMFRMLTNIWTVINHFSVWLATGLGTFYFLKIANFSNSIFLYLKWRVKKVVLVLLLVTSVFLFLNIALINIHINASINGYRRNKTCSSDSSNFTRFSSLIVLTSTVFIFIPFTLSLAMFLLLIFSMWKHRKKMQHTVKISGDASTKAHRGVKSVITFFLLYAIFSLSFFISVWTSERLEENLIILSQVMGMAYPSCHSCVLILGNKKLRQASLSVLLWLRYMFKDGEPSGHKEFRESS
# ASSAY_OVERVIEW: Calcium imaging assay (FLIPR), HEK293T-Gα16gust44 cells transfected with human TAS2R14
# Assay type: cell-based
# CONDITION_DETAILS: TAS2R14 trace; Time (s) 293.578 (Taurocholic Acid 293.563, Chenodeoxycholic Acid 293.546)

SUBSTANCE_SMILES | RLU / RLU
C[C@H](CCC(=O)NCCS(=O)(=O)O)[C@H]1CC[C@H]2[C@@H]3[C@H](O)C[C@@H]4C[C@H](O)CC[C@]4(C)[C@H]3C[C@H](O)[C@]12C | 127.213
C[C@H](CCC(=O)O)[C@H]1CC[C@H]2[C@@H]3[C@H](O)C[C@@H]4C[C@H](O)CC[C@]4(C)[C@H]3CC[C@]12C | 209.963
C[C@H](CCC(=O)NCCS(=O)(=O)O)[C@H]1CC[C@H]2[C@@H]3CC[C@@H]4C[C@H](O)CC[C@]4(C)[C@H]3CC[C@]12C | 26.9674
C[C@H](CCC(=O)NCC(=O)O)[C@H]1CC[C@H]2[C@@H]3[C@H](O)C[C@@H]4C[C@H](O)CC[C@]4(C)[C@H]3C[C@H](O)[C@]12C | 228.532
C[C@H](CCC(=O)O)[C@H]1CC[C@H]2[C@@H]3[C@H](O)C[C@@H]4C[C@H](O)CC[C@]4(C)[C@H]3C[C@H](O)[C@]12C | 221.346
